system tested: huPD-L1 (Homo sapiens, UniProt Q9NZQ7)
Sequence (Q9NZQ7 19-290): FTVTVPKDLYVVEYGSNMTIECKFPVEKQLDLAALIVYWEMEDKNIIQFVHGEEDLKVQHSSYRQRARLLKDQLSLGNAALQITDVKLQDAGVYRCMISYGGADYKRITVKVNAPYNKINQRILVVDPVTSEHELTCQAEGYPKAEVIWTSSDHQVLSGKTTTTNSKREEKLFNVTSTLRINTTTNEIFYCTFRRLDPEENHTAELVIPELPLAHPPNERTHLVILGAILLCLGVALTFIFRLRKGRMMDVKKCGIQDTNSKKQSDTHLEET
assay summary: Flow binding to CHO cells stably expressing PD-L1
Design: huCTLA4 and huPD-L1, full-length mammalian surface expression constructs were generated; expressed in transfected cells; host or cells: CHO cells, lentiviral transduction, sorted to >98% purity
conditions used: Table E19; ratio of MFI at 33.3 nM
measurement name: Ratio of PDL1:CD28

| molecule | readout value |
| --- | --- |
| E35D/M47L/V68M (protein) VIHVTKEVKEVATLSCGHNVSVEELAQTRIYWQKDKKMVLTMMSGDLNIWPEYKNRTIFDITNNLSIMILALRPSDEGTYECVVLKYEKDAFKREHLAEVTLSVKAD | 22.4 |
| M47V (protein) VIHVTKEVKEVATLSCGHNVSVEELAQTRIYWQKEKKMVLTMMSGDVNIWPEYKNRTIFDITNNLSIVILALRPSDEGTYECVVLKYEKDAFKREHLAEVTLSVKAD | 33.7 |
| E35D/M47V (protein) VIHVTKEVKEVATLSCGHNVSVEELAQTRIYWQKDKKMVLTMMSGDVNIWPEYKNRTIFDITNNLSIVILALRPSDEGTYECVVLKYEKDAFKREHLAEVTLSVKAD | 13.6 |
| E35D/K89N (protein) VIHVTKEVKEVATLSCGHNVSVEELAQTRIYWQKDKKMVLTMMSGDMNIWPEYKNRTIFDITNNLSIVILALRPSDEGTYECVVLKYENDAFKREHLAEVTLSVKAD | 3.2 |
| D46V/V68M (protein) VIHVTKEVKEVATLSCGHNVSVEELAQTRIYWQKEKKMVLTMMSGVMNIWPEYKNRTIFDITNNLSIMILALRPSDEGTYECVVLKYEKDAFKREHLAEVTLSVKAD | 4.1 |
| M47V/N48K/K89N (protein) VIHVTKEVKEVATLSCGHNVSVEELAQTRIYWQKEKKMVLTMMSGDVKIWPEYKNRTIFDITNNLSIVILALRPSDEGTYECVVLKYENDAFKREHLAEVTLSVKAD | 6.5 |
| E35D/D46V/M47V/N48K/V68M (protein) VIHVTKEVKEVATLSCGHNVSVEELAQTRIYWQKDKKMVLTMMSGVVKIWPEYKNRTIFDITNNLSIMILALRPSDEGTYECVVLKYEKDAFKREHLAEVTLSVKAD | 23.9 |
| K89N (protein) VIHVTKEVKEVATLSCGHNVSVEELAQTRIYWQKEKKMVLTMMSGDMNIWPEYKNRTIFDITNNLSIVILALRPSDEGTYECVVLKYENDAFKREHLAEVTLSVKAD | 0.9 |

Ref: patent US20220177587A1
